Test system: KRAS-mutant PDC tumor spheroid with HUVEC/MSC, viability
Assay: Anticancer human tumor 327498-153-R-J2-PDC patient-derived uterine carcinosarcoma cell line growth inhibition [KRAS2]
Settings: second compound 0.316 µM; first compound 0.1 µM; stronger effect = lower value
Assign labels as follows, please: yes for viability, T/C below 50%; no for viability, T/C equal to or exceeding 50%.

compound | group
O=C(c1cc(Cc2n[nH]c(=O)c3ccccc23)ccc1F)N1CCN(C(=O)C2CC2)CC1 + CC1OCC2(CCN(c3cnc(Sc4ccnc(N)c4Cl)c(N)n3)CC2)C1N | no
COc1cc(Nc2ncc3c(n2)-c2ccc(Cl)cc2C(c2c(F)cccc2OC)=NC3)ccc1C(=O)O + CC1OCC2(CCN(c3cnc(Sc4ccnc(N)c4Cl)c(N)n3)CC2)C1N | yes
O=C(c1cc(Cc2n[nH]c(=O)c3ccccc23)ccc1F)N1CCN(C(=O)C2CC2)CC1 + CNCc1ccccc1-c1csc(C(C)Nc2nc(C)nc3cc(OC)c(OC)cc23)c1 | no
CN(C)C/C=C/C(=O)Nc1cc2c(Nc3ccc(F)c(Cl)c3)ncnc2cc1O[C@H]1CCOC1 + COc1cc2nc(C)nc(NC(C)c3cc(N)cc(C(F)(F)F)c3)c2cc1OC1CCOC1 | no
Cn1nccc1Nc1nccc(-c2cc3c(s2)C(C)(C)N(CCN2CCOCC2)C3=O)n1 + CC1OCC2(CCN(c3cnc(Sc4ccnc(N)c4Cl)c(N)n3)CC2)C1N | yes
CC(C)n1nc(-c2ccc3oc(N)nc3c2)c2c(N)ncnc21 + CC1OCC2(CCN(c3cnc(Sc4ccnc(N)c4Cl)c(N)n3)CC2)C1N | yes
COc1cc(Nc2ncc3c(n2)-c2ccc(Cl)cc2C(c2c(F)cccc2OC)=NC3)ccc1C(=O)O + C=CC(=O)N1CCN(c2nc(OCC3CCCN3C)nc3c2CCN(c2cccc4cccc(C)c24)C3)CC1CC#N | yes
CCN1CCN(Cc2ccc(Nc3ncc(F)c(-c4cc(F)c5nc(C)n(C(C)C)c5c4)n3)nc2)CC1 + C=CC(=O)N1CCN(c2nc(=O)n(-c3c(C)ccnc3C(C)C)c3nc(-c4c(O)cccc4F)c(F)cc23)C(C)C1 | yes

* * *

System: KRAS-mutant PDC tumor spheroid with HUVEC/MSC, viability
Experiment: Anticancer human tumor 327498-153-R-J2-PDC cell line growth inhibition [KRAS2];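 also: spheroids exposed to agents for seven days before reading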
Details: curve of first compound; second compound 0.316 µM
reported metric: IC50

molecule | obs value
COc1cc(Nc2ncc3c(n2)-c2ccc(Cl)cc2C(c2c(F)cccc2OC)=NC3)ccc1C(=O)O + COc1cc2nc(C)nc(NC(C)c3cc(N)cc(C(F)(F)F)c3)c2cc1OC1CCOC1 | < 31.6 nM
COc1cc(Nc2ncc3c(n2)-c2ccc(Cl)cc2C(c2c(F)cccc2OC)=NC3)ccc1C(=O)O + C=CC(=O)N1CCN(c2nc(=O)n(-c3c(C)ccnc3C(C)C)c3nc(-c4c(O)cccc4F)c(F)cc23)C(C)C1 | < 31.6 nM
CC(C)n1nc(-c2ccc3oc(N)nc3c2)c2c(N)ncnc21 + C=CC(=O)N1CCN(c2nc(=O)n(-c3c(C)ccnc3C(C)C)c3nc(-c4c(O)cccc4F)c(F)cc23)C(C)C1 | < 0.316 nM
CN(C)C/C=C/C(=O)Nc1cc2c(Nc3ccc(F)c(Cl)c3)ncnc2cc1O[C@H]1CCOC1 + COc1cc2nc(C)nc(NC(C)c3cc(N)cc(C(F)(F)F)c3)c2cc1OC1CCOC1 | > 100 nM
CN(C)C/C=C/C(=O)Nc1cc2c(Nc3ccc(F)c(Cl)c3)ncnc2cc1O[C@H]1CCOC1 + CNCc1ccccc1-c1csc(C(C)Nc2nc(C)nc3cc(OC)c(OC)cc23)c1 | > 100 nM
COc1cc(Nc2ncc3c(n2)-c2ccc(Cl)cc2C(c2c(F)cccc2OC)=NC3)ccc1C(=O)O + CNCc1ccccc1-c1csc(C(C)Nc2nc(C)nc3cc(OC)c(OC)cc23)c1 | < 31.6 nM

Origin of the recorded values: PubChem BioAssay AID1963867
